- experiment: p53 small molecule agonists, cell-based qHTS assay with human liver microsomes: qHTS cell viability counter screen (AID 1963579); further: nearly all actives have a fitted effect of over 45% in size
- condition.set: p53RE-bla HCT-116 viability, ATP luminescence, 16 h, HLM; series mostly up to 66 µM
Records with an inconclusive call do not appear. Calls of active or inactive are those of the source. The call rests on the fitted dose curve.
Classes used: true (active), false (inactive)

| compound | assigned.class |
| --- | --- |
| CC(C)CC(C)Nc1ccc(Nc2ccccc2)cc1 (configuration not stated) | false |
| c1ccc2cc3c(cc2c1)-c1cccc2cccc-3c12 | false |
| C[C@]12C=CC(=O)C=C1CC[C@@H]1[C@@H]2CC[C@@]2(C)[C@H]1CC[C@]2(C)O | false |
| CCC1(c2ccccc2)C(=O)N=C(O)NC1=O (configuration not stated) | false |
| CCOC(=O)COc1ccc(Cl)cc1Cl | false |
| CCN[C@@H](C)Cc1ccccc1 | false |
| N[C@@H]1C[C@H]1c1ccccc1 | false |
| CC(C)OC(=O)C(O)(c1ccc(Cl)cc1)c1ccc(Cl)cc1 | true |
| O=C(O)C1(c2ccc3c(c2)OC[C@H](Cc2ccc(-c4ccccc4)cc2)[C@H]3O)CCCC1 | true |
| CCN[C@@H](C)Cc1cccc(C(F)(F)F)c1 | false |
| O=C(O)C(O)C(O)C(=O)O (configuration not stated) | false |
| Cc1ccn2nc(S(=O)(=O)Nc3c(F)cccc3F)nc2n1 | false |
| NC(=S)C(N)=S | false |
| Cc1nnc(-c2ccccc2)c(=O)n1N | false |
| Oc1ccc(C(=C(Cl)Cl)c2ccc(O)cc2)cc1 | true |
| CO/N=C(/C(=O)OC)c1ccccc1COc1ccccc1C | false |
| COc1cc(C[C@@H](C)N)c(OC)cc1C | false |
| CCOC(=O)NC(O)C(Cl)(Cl)Cl (configuration not stated) | false |
| CC(=O)C(Cl)(Cl)Cl | false |
| COC(=O)C(C)N(C(=O)c1ccco1)c1c(C)cccc1C (configuration not stated) | false |
| ClCc1ccc(Cl)cc1Cl | false |
| O=S(=O)(C(Cl)(Cl)Cl)C(Cl)(Cl)Cl | false |
